# Test System: DNA gyrase subunit B (Escherichia coli, UniProt P0AES6)
# Measurement Description: Inhibition of Escherichia coli JM109 DNA gyrase subunit B assessed as ATP hydrolysis by ATPase assay
Parameter: IC50 (nM)

# annotated cases, reported IC50 shown
INSERT INTO results (cpd_smiles, parameter, observed) VALUES
  ('CCCc1cc(C(=O)Nc2c(O)c3ccc(O[C@@H]4OC(C)(C)[C@H](OC)[C@@H](OC(=O)c5ccc(C)[nH]5)[C@H]4O)c(C)c3oc2=O)ccc1O', 'IC50', 84),
  ('CO[C@@H]1[C@@H](OC(=O)c2ccc(C)[nH]2)[C@@H](O)[C@H](Oc2ccc3c(O)c(NC(=O)c4ccccc4)c(=O)oc3c2Cl)OC1(C)C', 'IC50', 72),
  ('COc1cc(C(=O)Nc2c(O)c3ccc(O[C@@H]4OC(C)(C)[C@H](OC)[C@@H](O)[C@H]4OC(=O)c4ccc(C)[nH]4)c(Cl)c3oc2=O)ccc1O', 'IC50', 891),
  ('CO[C@@H]1[C@@H](O)[C@@H](OC(=O)c2ccc(C)[nH]2)[C@H](Oc2ccc3c(O)c(NC(=O)c4ccc(N)c(C)c4)c(=O)oc3c2C)OC1(C)C', 'IC50', 784),
  ('CO[C@@H]1[C@@H](O)[C@@H](OC(=O)c2ccc(C)[nH]2)[C@H](Oc2ccc3c(O)c(NC(=O)c4ccc(SC)cc4)c(=O)oc3c2Cl)OC1(C)C', 'IC50', 280),
  ('COc1cc(C(=O)Nc2c(O)c3ccc(O[C@@H]4OC(C)(C)[C@H](OC)[C@@H](OC(=O)c5ccc(C)[nH]5)[C@H]4O)cc3oc2=O)ccc1O', 'IC50', 185),
  ('COc1cc(/C=C/C(=O)Nc2c(O)c3ccc(O[C@@H]4OC(C)(C)[C@H](OC)[C@@H](OC(=O)c5ccc(C)[nH]5)[C@H]4O)c(Cl)c3oc2=O)ccc1O', 'IC50', 263),
  ('CO[C@@H]1[C@@H](OC(=O)c2ccc(C)[nH]2)[C@@H](O)[C@H](Oc2ccc3c(O)c(NC(=O)c4cc(C)c(O)c(C)c4)c(=O)oc3c2Cl)OC1(C)C', 'IC50', 65),
  ('COc1cc(C(=O)Nc2c(O)c3ccc(O[C@@H]4OC(C)(C)[C@H](OC)[C@@H](OC(=O)c5ccc(C)[nH]5)[C@H]4O)c(Cl)c3oc2=O)ccc1O', 'IC50', 122);

P: CO[C@@H]1[C@@H](O)[C@@H](OC(=O)c2ccc(C)[nH]2)[C@H](Oc2ccc3c(O)c(NC(=O)c4cc(C)c(O)c(C)c4)c(=O)oc3c2Cl)OC1(C)C
Q: CO[C@@H]1[C@@H](OC(=O)c2ccc(C)[nH]2)[C@@H](O)[C@H](Oc2ccc3c(O)c(NC(=O)c4ccc(SC)cc4)c(=O)oc3c2Cl)OC1(C)C
Request: // compare measured IC50 between P and Q ; output the lower one Could you answer with the label of the item you picked?
Result: Q
